Source of measurements: ChEMBL document CHEMBL1821619

Biological target: UniProt:P11712
Sequence (P11712 whole entry): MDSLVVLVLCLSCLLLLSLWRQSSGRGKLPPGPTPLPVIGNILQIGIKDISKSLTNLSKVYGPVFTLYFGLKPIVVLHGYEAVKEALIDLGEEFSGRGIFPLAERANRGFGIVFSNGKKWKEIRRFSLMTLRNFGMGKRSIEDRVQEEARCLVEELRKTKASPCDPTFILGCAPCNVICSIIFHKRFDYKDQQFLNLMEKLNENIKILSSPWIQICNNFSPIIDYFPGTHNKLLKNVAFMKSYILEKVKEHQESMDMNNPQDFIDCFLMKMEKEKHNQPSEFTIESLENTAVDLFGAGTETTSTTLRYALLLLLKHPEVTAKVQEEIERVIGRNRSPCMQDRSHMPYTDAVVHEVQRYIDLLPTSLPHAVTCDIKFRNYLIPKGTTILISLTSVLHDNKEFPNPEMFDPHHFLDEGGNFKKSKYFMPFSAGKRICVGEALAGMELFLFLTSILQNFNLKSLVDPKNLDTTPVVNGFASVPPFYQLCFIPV
Experiment: Inhibition of CYP2C9 at 1 uM
Format: ADME
Label MET when inhibition at 1 µM is at or above 50%; anything below gets NOT MET.

compound-string: CN1CCN([C@H]2CC[C@H](c3ccc(OCCCN4CCCCC4)cc3)CC2)CC1
assigned-category: NOT MET
//
compound-string: OC1CCN([C@H]2CC[C@H](c3ccc(OCCCN4CCCCC4)cc3)CC2)CC1
assigned-category: NOT MET
//
compound-string: c1cc([C@H]2CC[C@H](N3CCC3)CC2)ccc1OCCCN1CCCCC1
assigned-category: NOT MET
//
compound-string: c1cc([C@H]2CC[C@H](N3CCCCC3)CC2)ccc1OCCCN1CCCCC1
assigned-category: NOT MET
//
compound-string: CCCCN[C@H]1CC[C@@H](c2ccc(OCCCN3CCCCC3)cc2)CC1
assigned-category: MET
//
compound-string: c1ccc(CN[C@H]2CC[C@H](c3ccc(OCCCN4CCCCC4)cc3)CC2)cc1
assigned-category: NOT MET
//
compound-string: O=C1CCC(c2ccc(OCCCN3CCCCC3)cc2)CC1
assigned-category: NOT MET
//
compound-string: CC1CCN([C@H]2CC[C@@H](c3ccc(OCCCN4CCCCC4)cc3)CC2)CC1
assigned-category: MET
//
compound-string: CCCCN[C@H]1CC[C@H](c2ccc(OCCCN3CCCCC3)cc2)CC1
assigned-category: MET
//
compound-string: c1ccc2c(c1)CN([C@H]1CC[C@H](c3ccc(OCCCN4CCCCC4)cc3)CC1)C2
assigned-category: NOT MET
